Assay: cells
Conditions: Homo sapiens, DU-145, 48 h
Parameter IC50: see the listing below.
Could you give me the number in µM? Just the number is fine.

Observe how each entry below is paired with its result.
[[record]]
compound = "CC(=O)O[C@H]1C(=O)[C@@]2(C)[C@H]([C@H](OC(=O)c3ccccc3)[C@]3(O)C[C@H](OC(=O)[C@H](O)[C@@H](NC(=O)c4ccccc4)c4ccccc4)C(C)=C1C3(C)C)[C@]1(OC(C)=O)CO[C@@H]1C[C@@H]2O [PACLITAXEL]"
reported = 0.011

[[record]]
compound = "Cc1ccc(CCOC(=O)/C=C/c2ccc(O)c(O)c2)cc1"
reported = 36.9


Consider the additional compound presented here.
Q: Which IC50 reading was recorded for the compound O=C(/C=C/c1ccc(O)c(O)c1)OCCc1ccccc1O ?
Result: 24.4

---

Assay: cells
Details: Homo sapiens, DU-145, 48 h
value.kind: log10(IC50) (log10 of the value in µM)
Friendly reminder: values = log10 of IC50, unit µM.

[[record]]
compound = "COc1ccccc1CCOC(=O)/C=C/c1ccc(O)c(O)c1"
value_kind = "log10(IC50)"
reported = 0.30

[[record]]
compound = "COc1ccc(CCOC(=O)/C=C/c2ccc(O)c(O)c2)cc1"
value_kind = "log10(IC50)"
reported = 1.83

[[record]]
compound = "Cc1cccc(CCOC(=O)/C=C/c2ccc(O)c(O)c2)c1"
value_kind = "log10(IC50)"
reported = 1.33

[[record]]
compound = "O=C(/C=C/c1ccc(O)c(O)c1)OCCc1ccc(F)cc1"
value_kind = "log10(IC50)"
reported = 1.11

[[record]]
compound = "O=C(/C=C/c1ccc(O)c(O)c1)OCCc1ccc(O)cc1 [TYROSOL CAFFEATE]"
value_kind = "log10(IC50)"
reported = 1.72


Q: For Cc1ccccc1CCOC(=O)/C=C/c1ccc(O)c(O)c1 , what is its reported log10(IC50)?
Result: 0.82
